- test: LNP size and polydispersity index (PDI) by dynamic light scattering (DLS)
- Format: physicochemical
- applied-conditions: Table 3; LNP 50:10:38.5:1.5 mol %; hEPO mRNA; N:P 6
result-type: PDI
Number, no unit, nothing else.

CCCCCCCCC(CCCCCC)C(=O)OCCN(CCOC(=O)C(CCCCCC)CCCCCCCC)C(=O)C(N)Cc1ccccc1 (centres unmarked); 0.071

Name the reported PDI value associated with the molecule CCCCCCCCC(CCCCCC)C(=O)OCCN(CCOC(=O)C(CCCCCC)CCCCCCCC)C(=O)CN (centres unmarked)
0.256

Request: CCCCCCCC/C=C\CCCCCCCC(=O)OCCN(CCOC(=O)CCCCCCC/C=C\CCCCCCCC)C(=O)[C@H](C)N.Cl
0.032

CCCCCCCCC(CCCCCC)C(=O)OCCN(CCOC(=O)C(CCCCCC)CCCCCCCC)C(=O)C(C)N (centres unmarked) , same question.
0.27

Also, CCCCCCCC/C=C\CCCCCCCC(=O)OCCN(CCOC(=O)CCCCCCC/C=C\CCCCCCCC)C(=O)C(N)Cc1ccccc1 (centres unmarked) please.
0.068

Okay, and CCCCCCCC/C=C\CCCCCCCC(=O)OCCN(CCOC(=O)CCCCCCC/C=C\CCCCCCCC)C(=O)C(C)N (centres unmarked) ?
0.016

Also need CCCCCCCCC(CCCCCC)C(=O)OCCN(CCOC(=O)C(CCCCCC)CCCCCCCC)C(=O)CNCCO (centres unmarked) , thanks.
0.051

Also check CCCCCCCC/C=C\CCCCCCCC(=O)OCCN(CCOC(=O)CCCCCCC/C=C\CCCCCCCC)C(=O)[C@@H](N)Cc1ccccc1.Cl
0.033

Source: patent US20250268826A1
